List of logD at 0.5 h values.
test: Lipophilicity, logD of the compound in Octanol/phosphate buffer at pH 7.4 after 30 mins by shake-flask method
Format: physicochemical
Response field accepts a number only; no unit should be typed.

Use these answered entries as a reference point.
CN(C)Cc1ccc2c(c1)CN(c1cnc(NCc3c(F)ccc4c3CCO4)c3cn[nH]c(=O)c13)C2=O 2.2
CN(c1ncco1)c1cnc(NCc2c(F)ccc3c2CCO3)n2cnnc12 2.1
CN(c1ccccc1)c1cnc(NCc2c(F)ccc3c2CCO3)n2cnnc12 3.6
O=C1c2ccccc2CN1c1cnc(NCc2c(F)ccc3c2CCO3)n2cnnc12 2.7
Cc1cc(-c2cnc(NCc3c(F)ccc4c3CCO4)c3cn[nH]c(=O)c23)n(C)n1 3
Cn1cc(-c2cnc(NCc3c(F)ccc4c3CCO4)c3cn[nH]c(=O)c23)cn1 2.7
CN(c1ccn(C)n1)c1cnc(NCc2c(F)ccc3c2CCO3)n2cnnc12 1.8
CN(C)Cc1ccc2c(c1)CN(c1cnc(NCc3c(F)ccc4c3CCO4)n3cnnc13)C2=O 1.6

// query Fill blank: measured logD at 0.5 h of the compound "Cc1ncccc1-c1cnc(NCc2c(F)ccc3c2CCO3)n2cnnc12" is ____.
// result 2.5

// query Reported logD at 0.5 h for "O=C1CCCN1c1cnc(NCc2c(F)ccc3c2CCO3)c2cn[nH]c(=O)c12" : what is it?
// result 1.8
